# target entity: memapsin 2 (Homo sapiens (Human), UniProt P56817)
# Sequence (P56817 46-501): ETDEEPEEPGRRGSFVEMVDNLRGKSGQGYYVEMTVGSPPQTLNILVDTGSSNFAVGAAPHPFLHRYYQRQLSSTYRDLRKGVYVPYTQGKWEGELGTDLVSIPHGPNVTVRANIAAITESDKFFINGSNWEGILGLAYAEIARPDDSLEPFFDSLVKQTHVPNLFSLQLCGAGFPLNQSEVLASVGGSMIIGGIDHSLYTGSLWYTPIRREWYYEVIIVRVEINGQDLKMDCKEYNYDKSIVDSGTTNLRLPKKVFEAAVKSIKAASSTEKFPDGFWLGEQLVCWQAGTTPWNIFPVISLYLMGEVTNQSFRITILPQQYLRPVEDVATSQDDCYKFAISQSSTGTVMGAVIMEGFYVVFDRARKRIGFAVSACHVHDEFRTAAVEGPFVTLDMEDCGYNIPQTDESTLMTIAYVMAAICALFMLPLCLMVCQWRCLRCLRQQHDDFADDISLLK
# measurement notes: Inhibition of memapsin 2 catalytic activity toward fluorogenic substrate FS-2
# Format: biochemical
# run parameters: memapsin 2, pH 4, 37° C., 20 minutes pre-incubation, tight-binding model
# Method: Inhibition of Memapsin 1, Memapsin 2, and Cathepsin D Catalytic Activity. […] Ions with a mass-to-charge ratio (m/z) were detected in the range of 650-2000 atomic mass units. Data were analyzed by the Voyager Data Explorer module to obtain ion intensity data for mass species of substrates and corresponding products in a given mixture. […] Alternatively, relative hydrolytic rates were determined using a fluorogenic cleavage assay (Ermolieff, J. et al., Biochemistry, 39: 12450-12456 (2000)). […]
Quick list: Ki per entry.

C[C@@H](NC(=O)c1cc(C(=O)N[C@@H](Cc2ccccc2)[C@H](O)C2NCCN(Cc3ccccc3)C2=O)cc(N(C)S(C)(=O)=O)c1)c1ccccc1 (stereo partly drawn) = < 10 µM
CC(C)CN1CCN[C@@H]([C@@H](O)[C@H](Cc2ccccc2)NC(=O)c2cc(C(=O)N[C@H](C)c3ccccc3)cc(N(C)S(C)(=O)=O)c2)C1=O [GRL-0849AL] = < 1 µM
COc1ccc(CN2CCN[C@@H]([C@@H](O)[C@H](Cc3ccccc3)NC(=O)c3cc(C(=O)N[C@H](C)c4ccccc4)cc(N(C)S(C)(=O)=O)c3)C2=O)cc1 [GRL-0889AL] = < 1 µM

So for COc1cccc(C[C@@H]2CC[C@H]([C@@H](O)CNC(=O)c3cc(C(=O)N[C@H](C)c4ccccc4)cc(N(C)S(C)(=O)=O)c3)N2C(=O)OC(C)(C)C)c1 [Comparison compound A, reference compound] , the logged Ki turned out to be > 1 µM

So for COc1cccc(CN2CCN[C@@H]([C@@H](O)[C@H](Cc3ccccc3)NC(=O)c3cccc(C(=O)N4CCC[C@@H]4c4nc(C)cs4)c3)C2=O)c1 [GRL-1069AL] , the logged Ki turned out to be < 1 µM

So for COc1cccc(CN2CCN[C@@H]([C@@H](O)[C@H](Cc3ccccc3)NC(=O)c3cc(C(=O)N[C@H](C)c4ccccc4)cc(N(C)S(C)(=O)=O)c3)C2=O)c1 [GRL-1079AL] , the logged Ki turned out to be < 1 µM

So for Cc1nc(CN(C)C(=O)c2cccc(C(=O)N[C@@H](Cc3ccccc3)[C@H](O)C3NCCN(Cc4ccccc4)C3=O)c2)cs1 (single isomer, unassigned) [Example 11b] , the logged Ki turned out to be > 10 µM

So for Cc1nc(CN(C)C(=O)c2cccc(C(=O)N[C@@H](Cc3ccccc3)[C@H](O)C3NCCN(Cc4ccccc4)C3=O)c2)cs1 (single isomer, unassigned) [Example 11a] , the logged Ki turned out to be < 1 µM

So for COc1ccc(CN2CCN[C@@H]([C@@H](O)[C@H](Cc3ccccc3)NC(=O)c3cccc(C(=O)N4CCC[C@@H]4c4nc(C)cs4)c3)C2=O)cc1 [GRL-0819AL] , the logged Ki turned out to be < 1 µM

So for C[C@@H](NC(=O)c1cc(C(=O)N[C@@H](Cc2ccccc2)[C@H](O)C2Cc3ccccc3CN2)cc(N(C)S(C)(=O)=O)c1)c1ccccc1 (stereo partly drawn) , the logged Ki turned out to be > 10 µM

So for Cc1csc([C@H]2CCCN2C(=O)c2cccc(C(=O)N[C@@H](Cc3ccccc3)[C@H](O)[C@@H]3NCCN(CC(C)C)C3=O)c2)n1 [GRL-0669AL] , the logged Ki turned out to be < 1 µM

So for COc1cccc(C[C@@H]2CC[C@H]([C@@H](O)CNC(=O)c3cc(C(=O)N[C@H](C)c4ccccc4)cc(N(C)S(C)(=O)=O)c3)N2)c1 [Comparison compound B, reference compound] , the logged Ki turned out to be > 10 µM

Reference source for all entries: patent US8703947B2
